Exercise: state measured IC50 for each of the compounds provided.
The reply should contain only the number, in µM.

Entry c1cc(CCN2CCCC2)cc(N2CCC(N3CCCC3)CC2)c1 : IC50 on Lethal(3)malignant brain tumor-like protein 3 (Homo sapiens) = 0.12

Known value: Lethal(3)malignant brain tumor-like protein 3 (Homo sapiens) IC50 of the compound c1ccc(N2CCC(N3CCCC3)CC2)cc1 equals 13

IC50 of O=C1CCN(CCc2ccc(N3CCC(N4CCCC4)CC3)cc2)C1 , assay on Lethal(3)malignant brain tumor-like protein 3 (Homo sapiens), is 0.39

So the reported IC50 for c1cc(N2CCC(N3CCCC3)CC2)ccc1CCN1CCCC1 , on Lethal(3)malignant brain tumor-like protein 3 (Homo sapiens), turned out to be 0.062

Entry FC1(F)CN(CCc2ccc(N3CCC(N4CCCC4)CC3)cc2)C1 under Lethal(3)malignant brain tumor-like protein 3 (Homo sapiens) had IC50 of 1

Case N#CC1CCN(CCc2ccc(N3CCC(N4CCCC4)CC3)cc2)C1 (stereo unspecified) , Lethal(3)malignant brain tumor-like protein 3 (Homo sapiens), IC50 recorded as 0.36

---

- ASSAYED SYSTEM: MBT domain-containing protein 1 (Homo sapiens, UniProt Q05BQ5)
- Sequence (Q05BQ5 whole entry, the tested form may be a part): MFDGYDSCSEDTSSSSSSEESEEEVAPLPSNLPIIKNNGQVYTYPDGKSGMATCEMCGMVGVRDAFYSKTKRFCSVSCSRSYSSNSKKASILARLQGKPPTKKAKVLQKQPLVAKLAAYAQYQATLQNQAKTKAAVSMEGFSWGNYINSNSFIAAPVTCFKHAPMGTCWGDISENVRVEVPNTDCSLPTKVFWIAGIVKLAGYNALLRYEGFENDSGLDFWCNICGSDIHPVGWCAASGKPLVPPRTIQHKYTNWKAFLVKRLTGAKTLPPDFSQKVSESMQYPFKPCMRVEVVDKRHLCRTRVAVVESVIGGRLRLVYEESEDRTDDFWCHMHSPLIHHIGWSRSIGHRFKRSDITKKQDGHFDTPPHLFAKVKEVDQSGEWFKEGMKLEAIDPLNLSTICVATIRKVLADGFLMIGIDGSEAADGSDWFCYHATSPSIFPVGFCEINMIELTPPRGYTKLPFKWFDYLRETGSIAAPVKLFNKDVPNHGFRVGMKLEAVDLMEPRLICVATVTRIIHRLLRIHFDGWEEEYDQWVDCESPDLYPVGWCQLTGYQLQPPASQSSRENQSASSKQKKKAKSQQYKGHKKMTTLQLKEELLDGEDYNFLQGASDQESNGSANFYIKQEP
- EXPERIMENT SUMMARY: Inhibition of MBTD1 (130 to 566) (unknown origin) expressed in Escherichia coli BL21 Rosetta DE3 using H4K20Me1 as substrate incubated for 30 mins at room temperature followed by incubation under dark condition for 30 mins by AlphaScreen assay
Please provide measured IC50 for the entries that follow.
Dear colleague, please return just the value in µM, with no unit written.

response.value for c1cc(N2CCC(N3CCCC3)CC2)ccc1N1CCC(N2CCCC2)CC1 (field: IC50) = 149

Documented IC50 of c1cc(N2CCC(N3CCCC3)CC2)ccc1CCN1CCCCC1 : 290

So for c1cc(N2CCC(N3CCCC3)CC2)ccc1CCCN1CCCC1 , the logged IC50 turned out to be 135

// c1cc(N2CCC(N3CCCCC3)CC2)ccc1CCN1CCCC1 : IC50 value = 170

Sure, the documented IC50 for O=C1CCN(CCc2ccc(N3CCC(N4CCCC4)CC3)cc2)C1 is 166

Kindly note the recorded IC50 for c1cc(N2CCC(N3CCCC3)CC2)ccc1CCN1CCCC1 , which is 53

Lab book: IC50 of c1cc(CCN2CCCC2)cc(N2CCC(N3CCCC3)CC2)c1 noted as 261

For record c1cc(N2CCC(N3CCCC3)CC2)ccc1CN1CCCC1 the listed IC50 is 157

Value of IC50 reported for the compound c1cc(CN2CCCC2)cc(N2CCC(N3CCCC3)CC2)c1 is 78

---

Target or system Lethal(3)malignant brain tumor-like protein 3 (Homo sapiens): recorded Kd listed per item.
Entry rule: numbers only, all in nM.

Entry c1cc(N2CCC(N3CCCCC3)CC2)ccc1CCN1CCCC1 — recorded Kd = 2400

// Kd value for c1cc(CCN2CCCC2)cc(N2CCC(N3CCCC3)CC2)c1 : 2700

// sample O=C(CCc1ccc(N2CCC(N3CCCC3)CC2)cc1)N1CCCC1 , its Kd was 38000

---

- ASSAYED SYSTEM: TP53-binding protein 1 (Homo sapiens)
- Sequence (Q12888 whole entry): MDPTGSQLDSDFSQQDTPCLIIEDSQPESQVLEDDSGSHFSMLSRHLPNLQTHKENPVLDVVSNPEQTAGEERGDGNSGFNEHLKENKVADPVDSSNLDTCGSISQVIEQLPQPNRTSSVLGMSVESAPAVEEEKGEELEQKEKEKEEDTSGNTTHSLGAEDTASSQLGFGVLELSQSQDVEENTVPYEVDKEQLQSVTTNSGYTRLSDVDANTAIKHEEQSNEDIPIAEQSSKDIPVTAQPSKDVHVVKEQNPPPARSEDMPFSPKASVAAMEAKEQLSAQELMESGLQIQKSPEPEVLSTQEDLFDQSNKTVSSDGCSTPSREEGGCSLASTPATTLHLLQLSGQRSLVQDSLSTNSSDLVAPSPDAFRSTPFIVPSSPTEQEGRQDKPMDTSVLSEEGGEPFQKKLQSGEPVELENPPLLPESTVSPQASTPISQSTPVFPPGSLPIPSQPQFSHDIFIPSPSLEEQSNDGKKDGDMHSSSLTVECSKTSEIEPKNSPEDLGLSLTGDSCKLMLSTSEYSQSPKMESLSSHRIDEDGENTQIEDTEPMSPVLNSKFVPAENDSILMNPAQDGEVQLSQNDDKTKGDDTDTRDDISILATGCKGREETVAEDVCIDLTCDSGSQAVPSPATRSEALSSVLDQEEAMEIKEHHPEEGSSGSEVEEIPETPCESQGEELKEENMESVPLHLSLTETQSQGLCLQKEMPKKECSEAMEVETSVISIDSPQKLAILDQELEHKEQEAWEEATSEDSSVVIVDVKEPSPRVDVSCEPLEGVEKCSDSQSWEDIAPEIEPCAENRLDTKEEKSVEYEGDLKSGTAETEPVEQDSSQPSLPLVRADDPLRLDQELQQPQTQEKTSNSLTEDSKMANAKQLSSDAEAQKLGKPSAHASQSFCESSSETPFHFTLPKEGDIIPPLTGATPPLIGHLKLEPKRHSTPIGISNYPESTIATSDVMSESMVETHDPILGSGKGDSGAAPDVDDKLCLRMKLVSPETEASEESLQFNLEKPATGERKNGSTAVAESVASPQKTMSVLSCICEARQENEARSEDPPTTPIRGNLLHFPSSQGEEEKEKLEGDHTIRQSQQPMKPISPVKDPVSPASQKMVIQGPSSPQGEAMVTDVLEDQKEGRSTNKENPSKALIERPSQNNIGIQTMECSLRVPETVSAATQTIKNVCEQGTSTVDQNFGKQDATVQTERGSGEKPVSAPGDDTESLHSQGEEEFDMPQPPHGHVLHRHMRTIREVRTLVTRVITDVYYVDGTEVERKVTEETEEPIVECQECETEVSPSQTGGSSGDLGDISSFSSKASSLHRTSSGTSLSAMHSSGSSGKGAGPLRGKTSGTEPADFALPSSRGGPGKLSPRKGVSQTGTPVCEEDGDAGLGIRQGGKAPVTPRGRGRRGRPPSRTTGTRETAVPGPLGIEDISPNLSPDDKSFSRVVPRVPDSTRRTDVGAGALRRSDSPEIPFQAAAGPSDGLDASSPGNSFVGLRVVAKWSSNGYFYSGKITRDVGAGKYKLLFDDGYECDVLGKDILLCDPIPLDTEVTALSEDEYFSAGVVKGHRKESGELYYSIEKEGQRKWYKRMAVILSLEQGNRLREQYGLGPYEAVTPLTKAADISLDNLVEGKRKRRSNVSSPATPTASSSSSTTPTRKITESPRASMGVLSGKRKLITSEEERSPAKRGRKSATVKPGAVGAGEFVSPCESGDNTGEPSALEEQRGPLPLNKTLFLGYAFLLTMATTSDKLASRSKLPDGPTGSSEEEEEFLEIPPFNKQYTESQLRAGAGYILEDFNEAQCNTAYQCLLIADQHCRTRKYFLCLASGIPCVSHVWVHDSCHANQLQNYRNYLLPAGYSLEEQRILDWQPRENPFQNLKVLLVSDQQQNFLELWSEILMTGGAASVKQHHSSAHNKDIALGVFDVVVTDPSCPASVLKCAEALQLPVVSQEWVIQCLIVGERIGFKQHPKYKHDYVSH
pIC50: −log10 of the molar value.
MEASUREMENT KIND: pIC50

The reported value for c1cc(N2CCC(N3CCCC3)CC2)ccc1CCN1CCCC1 in terms of pIC50 is 4.84

// pIC50 value for c1cc(N2CCC(N3CCCC3)CC2)ccc1N1CCC(N2CCCC2)CC1 : < 4.52

So for c1cc(N2CCC(N3CCCC3)CC2)ccc1CCCN1CCCC1 , the logged pIC50 turned out to be < 4.52

So for FC1(F)CN(CCc2ccc(N3CCC(N4CCCC4)CC3)cc2)C1 , the logged pIC50 turned out to be < 4.52

Query O=C(c1cncc(Br)c1)N1CCC(N2CCCC2)CC1 yields pIC50 of < 4.52

According to the records, this compound c1ccc(N2CCC(N3CCCC3)CC2)cc1 displays pIC50 of < 4.52

---

pIC50: −log10 of the molar value.
MEASUREMENT KIND: pIC50

Bench note, TP53-binding protein 1 (Homo sapiens): entry O=C(c1cccc(N2CCC(N3CCCC3)CC2)c1)N1CCCC1 , its pIC50 = < 4.52

Entry O=C(CCc1ccc(N2CCC(N3CCCC3)CC2)cc1)N1CCCC1 under TP53-binding protein 1 (Homo sapiens) had pIC50 of < 4.52

The measured pIC50 that c1cc(N2CCC(N3CCCC3)CC2)ccc1CCN1CCCCC1 showed for TP53-binding protein 1 (Homo sapiens) is < 4.52

---

- ASSAYED SYSTEM: Lethal(3)malignant brain tumor-like protein 3 (Homo sapiens, UniProt Q96JM7)
- Sequence (Q96JM7 whole entry): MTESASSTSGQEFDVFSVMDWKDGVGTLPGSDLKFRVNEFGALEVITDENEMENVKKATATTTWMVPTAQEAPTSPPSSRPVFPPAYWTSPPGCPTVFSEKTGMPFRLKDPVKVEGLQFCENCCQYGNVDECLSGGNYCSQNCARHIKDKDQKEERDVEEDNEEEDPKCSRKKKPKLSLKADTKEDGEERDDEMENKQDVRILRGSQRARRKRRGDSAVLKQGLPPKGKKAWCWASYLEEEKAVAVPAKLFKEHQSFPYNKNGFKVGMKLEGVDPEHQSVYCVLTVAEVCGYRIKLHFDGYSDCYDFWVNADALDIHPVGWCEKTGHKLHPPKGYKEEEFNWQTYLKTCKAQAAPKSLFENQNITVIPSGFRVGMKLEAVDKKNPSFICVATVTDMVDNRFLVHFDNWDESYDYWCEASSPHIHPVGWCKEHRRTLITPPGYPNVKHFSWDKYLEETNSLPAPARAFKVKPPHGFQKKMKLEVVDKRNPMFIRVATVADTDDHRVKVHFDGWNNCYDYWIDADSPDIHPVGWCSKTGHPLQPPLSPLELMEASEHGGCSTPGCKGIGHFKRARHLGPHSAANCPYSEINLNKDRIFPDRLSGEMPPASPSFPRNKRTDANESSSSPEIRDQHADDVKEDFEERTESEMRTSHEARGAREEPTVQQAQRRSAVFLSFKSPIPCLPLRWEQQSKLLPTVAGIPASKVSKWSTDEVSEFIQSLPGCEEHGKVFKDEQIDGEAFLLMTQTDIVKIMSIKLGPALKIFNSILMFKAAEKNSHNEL
I'd be grateful if you could share measured pIC50 for these entries.
Recall that pIC50 is obtained by taking minus log10 of the concentration measured in molar.

Case c1cc(N2CCC(N3CCCC3)CC2)ccc1CCCN1CCCC1 , Lethal(3)malignant brain tumor-like protein 3 (Homo sapiens, UniProt Q96JM7), pIC50 recorded as 7.15

pIC50 of OCC1(CO)CN(CCc2ccc(N3CCC(N4CCCC4)CC3)cc2)C1 , assay on Lethal(3)malignant brain tumor-like protein 3 (Homo sapiens, UniProt Q96JM7), is 7.23

Measured pIC50 for this entry c1cc(N2CCC(N3CCCC3)CC2)ccc1CCN1CCCCCC1 on Lethal(3)malignant brain tumor-like protein 3 (Homo sapiens, UniProt Q96JM7): 7.00

O=C(c1cccc(N2CCC(N3CCCC3)CC2)c1)N1CCCC1 on Lethal(3)malignant brain tumor-like protein 3 (Homo sapiens, UniProt Q96JM7) gives pIC50 = 5.62

pIC50 value, target or system Lethal(3)malignant brain tumor-like protein 3 (Homo sapiens, UniProt Q96JM7), for c1cc(N2CCC(N3CCCC3)CC2)ccc1CCN1CC2(COC2)C1 : 6.57

Form: item c1cc(N2CCC(N3CCCC3)CC2)ccc1CCN1CCC1 ; test system Lethal(3)malignant brain tumor-like protein 3 (Homo sapiens, UniProt Q96JM7); pIC50: 7.32

Entry c1cc(CN2CCCC2)cc(N2CCC(N3CCCC3)CC2)c1 ; assay system Lethal(3)malignant brain tumor-like protein 3 (Homo sapiens, UniProt Q96JM7); pIC50 recorded at 6.92

Value sought: pIC50, system Lethal(3)malignant brain tumor-like protein 3 (Homo sapiens, UniProt Q96JM7), item c1cc(N2CCC(N3CCCC3)CC2)ccc1CCN1CCCCC1 . Result: 7.10

Observed pIC50 on Lethal(3)malignant brain tumor-like protein 3 (Homo sapiens, UniProt Q96JM7), entry O=C(CCc1ccc(N2CCC(N3CCCC3)CC2)cc1)N1CCCC1 , equals 5.62

pIC50 on Lethal(3)malignant brain tumor-like protein 3 (Homo sapiens, UniProt Q96JM7) for O=C(c1ccc(C(=O)N2CCC(N3CCCCC3)CC2)cc1)N1CCC(N2CCCCC2)CC1 is 5.10

Reported Lethal(3)malignant brain tumor-like protein 3 (Homo sapiens, UniProt Q96JM7) pIC50 for item c1cc(N2CCC(N3CCCCC3)CC2)ccc1CCN1CCCC1 was 6.24

Item: Clc1cc(N2CCC(N3CCCC3)CC2)ccc1CCN1CCCC1 | System: Lethal(3)malignant brain tumor-like protein 3 (Homo sapiens, UniProt Q96JM7) | pIC50: 7.43

The recorded pIC50 with Lethal(3)malignant brain tumor-like protein 3 (Homo sapiens, UniProt Q96JM7) for c1cc(N2CCC(N3CCCC3)CC2)ccc1N1CCC(N2CCCC2)CC1 was 6.49

Entry O=C(c1cncc(Br)c1)N1CCC(N2CCCC2)CC1 : pIC50 on Lethal(3)malignant brain tumor-like protein 3 (Homo sapiens, UniProt Q96JM7) = 5.55

For the compound c1cc(N2CCC(N3CCCC3)CC2)ccc1CCN1CCOCC1 , the measured pIC50 on Lethal(3)malignant brain tumor-like protein 3 (Homo sapiens, UniProt Q96JM7) was 6.07

Entry c1cc(N2CCC(N3CCCC3)CC2)ccc1CN1CCCC1 under Lethal(3)malignant brain tumor-like protein 3 (Homo sapiens, UniProt Q96JM7) had pIC50 of 6.46

Entry O=C(c1ccc(C(=O)N2CCC(N3CCCC3)CC2)c(Nc2ccccc2)c1)N1CCC(N2CCCC2)CC1 : pIC50 on Lethal(3)malignant brain tumor-like protein 3 (Homo sapiens, UniProt Q96JM7) = 7.62

Entry c1cc(N2CCC(N3CCCC3)CC2)ccc1CCN1CCC2(C1)OCCO2 : pIC50 on Lethal(3)malignant brain tumor-like protein 3 (Homo sapiens, UniProt Q96JM7) = 6.19

Bench note, Lethal(3)malignant brain tumor-like protein 3 (Homo sapiens, UniProt Q96JM7): entry c1cc(CN2CCCC2)ccc1CCN1CCCC1 , its pIC50 = 5.89
